Provenance of the data: patent US20170260126A1

# Tested on: CHO pLDLR-Luciferase cells
# measurement notes: Combination therapy experiments, luciferase compound screen with simvastatin
# Format: cell-based, Chinese Hamster
# experimental setup: Cricetulus griseus; single agent, CHO-pLDLR-Luc, FIG. 3a/3b; read-out: EC50, increase in levels of luciferase
Assign EC50 to each entry below.
Numbers only, in nM.

Go through the items and report each one's EC50.
1. CCC(C)(C)C(=O)O[C@H]1C[C@@H](C)C=C2C=C[C@H](C)[C@H](CC[C@@H]3C[C@@H](O)CC(=O)O3)[C@H]21 [Simvastatin, reference compound]
2. OCCCOc1ccc(/C=C/c2ccccc2)cc1 [Compound 40, (E)-3-(4-styrylphenoxy)propan-1-ol]

1: 128; 2: 31.5

----------
metric name: melting point

Here are 2 compounds together with their reported answers.
1) COc1ccccc1/C=C/c1ccc(OCCCN(C)C)cc1 [Compound 44c] ... 177.6 to 180.9 °C
2) CN(C)CCCOc1ccc(/C=C/c2cccc(F)c2)cc1 [Compound 46b] ... 56.2 to 58.6 °C

Give melting point for all compounds that follow.
1. COc1cccc(/C=C/c2ccc(OCCCN(C)C)cc2)c1 [Compound 44b]
2. CN(C)CCCOc1ccc(/C=C/c2ccccc2)cc1F
3. CN(C)CCCOc1ccc(/C=C/c2ccccc2)cc1 [Compound 15a]
4. CN(C)CCCOc1ccc(/C=C/c2ccc(F)cc2)cc1 [Compound 46a]
5. COc1ccc(/C=C/c2ccc(OCCCN(C)C)cc2)cc1 [Compound 44a]

1. 28 to 32 °C
2. 68.2 to 72.6 °C
3. 75 to 77 °C
4. 128.8 to 129.9 °C
5. 138 to 140 °C

----------
Task for the reader: assign each of the following molecules its reported melting point.

Worked examples, 4 molecules total:
1. CNCCCOc1ccc(/C=C/c2ccccc2)cc1 ... 84.2 to 87.7 °C
2. COCCCOc1ccc(/C=C/c2ccccc2)cc1 [Compound 41, (E)-1-(3-methoxypropoxy)-4-styrylbenzene] ... 77.8 to 81 °C
3. CN(C)CCCOc1ccc(/C=C/c2ccccc2[N+](=O)[O-])cc1 [Compound 47c] ... 51.9 to 57.1 °C
4. CN(C)CCCOc1ccc(/C=C/c2ccc([N+](=O)[O-])cc2)cc1 [Compound 47a] ... 85.2 to 85.9 °C

May I ask what melting point has been recorded for `CC(C)CCCOc1ccc(/C=C/c2ccccc2)cc1` ?
97 to 98 °C
